method: yeast display, Sf9 membrane polyspecificity reagent, FACS + sequencing; frameworks hold sequencing errors
observation_type: polyreactivity (PSR sort gate)

Requested read-out: polyreactivity (PSR sort gate). Entry: QVQLVESGGGLVQAGGSLRLSCAASGSIFPKYAKGWYRQAPGKEREMVAAINWRGVSTYYADSVKGRFTISRDNAKNTVYLQMNSLKPEDTAVYYCAADLLHTRQFGYWGQGTQVTVSS low polyreactivity

Requested read-out: polyreactivity (PSR sort gate). Entry: QVQLVESGGGLVQAGGSLRLSCAASGGIFWFYAMGWYRQAPGKERELVASIRSSDGGTYYADSVKGRFTISRDNAKNTVYLQMNSLKPEDTAVYYCAADQTYERHWVYYWGQGTQVTVSS low polyreactivity
